Reported TSrotamer(fast) values are given for each entry in this list.
Target: calmodulin (Homo sapiens, UniProt P0DP23)
Experiment: Change in conformational entropy of calmodulin on binding a target domain, estimated from methyl O^2axis (harmonic oscillator model)
Conditions: classical entropy, fast rotamer interconversion; 308 K
Text: Guided by Karplus and co-workers (see Karplus M et al. (1987)), the present approach connects the change in internal protein dynamics to the conformational entropy, describing the protein as a disjoint multidimensional harmonic well: Sconf=ΣpiS^hi−kBΣpilnpi (2) where S^hi represents the entropy manifested by fast intra-well motion and the second term corresponds to the classical conformational entropy arising from the i=1 . . . N distinct conformations. […]
Entry format: amount then unit.

Worked cases, TSrotamer(fast) given:
[[record]]
substance = "RKKTFKEVANAVKISASLMG [eNOS(p)]"
observed_measurement = "24.21 kcal/mol"

[[record]]
substance = "QTEKMWQRLKGILRSLVKQ [PDE(p)]"
observed_measurement = "25.96 kcal/mol"

[[record]]
substance = "KRRAIGFKKLAEAVKFSAKLMGQ [nNOS(p)]"
observed_measurement = "26.31 kcal/mol"

[[record]]
substance = "AKSKWKQAFNATAVVRHMRKLQ (listed as Homo sapiens) [CaMKI(p)]"
observed_measurement = "22.6 kcal/mol"


Then this substance:
QUERY: What value of measured TSrotamer(fast) is listed for (COOH-FPNGFSRKRLMSKVLIVTTWSPLL [CaMKKα(p)] ?
RESULT: 23.5 kcal/mol

* * *

Biological target: calmodulin (Homo sapiens, UniProt P0DP23)
Test: Change in conformational entropy of calmodulin on binding a target domain, estimated from methyl O^2axis (harmonic oscillator model)
Settings: calmodulin upon binding target domain; free CaM reference state; 308 K
Reported −TΔSconf values are given for each entry in this list.

[[record]]
substance = "(COOH-FPNGFSRKRLMSKVLIVTTWSPLL [CaMKKα(p)]"
observed_measurement = "+63.5 kJ/mol"

[[record]]
substance = "KRRAIGFKKLAEAVKFSAKLMGQ [nNOS(p)]"
observed_measurement = "+15.9 kJ/mol"

[[record]]
substance = "RKKTFKEVANAVKISASLMG [eNOS(p)]"
observed_measurement = "+46.1 kJ/mol"


QUERY: What value of measured −TΔSconf is listed for AKSKWKQAFNATAVVRHMRKLQ (listed as Homo sapiens) [CaMKI(p)] ?
RESULT: +66.0 kJ/mol

QUERY: What value of measured −TΔSconf is listed for QTEKMWQRLKGILRSLVKQ [PDE(p)] ?
RESULT: +24.9 kJ/mol
